// provenance: paper PMC10841737

Target: T1, Sub1 (Saccharomyces cerevisiae, UniProt P54000 1-292)
T1 sequence: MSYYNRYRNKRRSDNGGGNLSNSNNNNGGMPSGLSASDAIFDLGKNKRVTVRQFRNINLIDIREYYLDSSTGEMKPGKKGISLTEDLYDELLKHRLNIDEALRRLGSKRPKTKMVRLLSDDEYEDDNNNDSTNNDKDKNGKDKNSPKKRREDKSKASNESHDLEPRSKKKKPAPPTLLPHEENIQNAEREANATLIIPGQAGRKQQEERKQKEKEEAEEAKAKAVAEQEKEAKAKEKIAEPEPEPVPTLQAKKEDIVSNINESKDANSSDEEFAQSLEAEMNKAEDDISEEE
Assay: filter binding
measured.metric: Kd (nM)
# unit: nM | format: bare number

Report Kd for TTTTTTTTTTTTTTTGAGGGTGGGTAGGGTGGGTAA (structured_DNA) [G4DNA] please.
0.86
